procedureSummary: qHTS assay to identify small molecule agonists of the estrogen related receptor signaling pathway with the pleiotropic PPARgamma coactivator (PGC) (AID 1224823); note: % is set by controls: 0 for no effect and ±100 for the full control effect
details: ERR/PGC reporter cell line, luciferase agonist mode; series mostly up to 46.1 µM
Method: National Center for Advancing Translational Sciences [NCATS] NIH Chemical Genomics Center [NCGC] U.S. Environmental Protection Agency [EPA] National Institutes of Environmental Health Sciences [NIEHS] National Toxicology Program [NTP] […] The PGC/ERR cells were dispensed at 2,000 cells/5 ul/well in 1536-well white plates using a Multidrop dispenser. […] After 30 min incubation at room temperature, the luminescence intensity in the plates was measured using a ViewLux plate reader.
Inconclusive results are not listed. The source made the active and inactive calls. Calls come from the whole dose curve; as a rule, active = well fitted activation curve with a large enough effect in the repeat runs; inconclusive = weak or mixed curves; inactive = no such curve, though single readings can be large or run the other way.
observationType: outcome

Example results:
CCCC(C(=O)OCCN(CC)CC)(c1ccccc1)c1ccccc1
inactive
OCCN1CCN(CCCN2c3ccccc3Sc3ccc(Cl)cc32)CC1
inactive
CN(C)CCC=C1c2ccccc2C=Cc2ccccc21
inactive
C[C@H]1c2cccc(O)c2C(O)=C2C(=O)[C@]3(O)C(O)=C(C(N)=O)C(=O)[C@@H](N(C)C)[C@@H]3[C@@H](O)[C@@H]21
inactive

Alright, here's another molecule for you.
Request the reported outcome associated with `O=C(CCc1ccc(O)cc1)c1c(O)cc(O)cc1O` inactive

---

procedureSummary: A CellTox Green Cytotoxicity Assay to monitor cytotoxicity in HEK293 cells - 16 hour (AID 1224888); note: nearly all actives have a fitted effect of over 35% in size
details: CellTox Green fluorescence; series mostly up to 76.8 µM
Inconclusive results are not listed. Calls of active or inactive are those of the source. Calls follow the shape of the dose curve; as a rule, active = well fitted activation curve with a large enough effect in the repeat runs; inconclusive = weak or mixed curves; inactive = flat fitted curve, though single readings scatter.
Output constraint: value belongs to yes (1) (active), no (0) (inactive)

Before answering, review these 2 worked examples.
CCCC(C(=O)OCCN(CC)CC)(c1ccccc1)c1ccccc1
no (0)
Oc1c(I)cc(I)c2cccnc12
no (0)

# fetch the recorded call for `Nc1nc2ccc([N+](=O)[O-])cc2s1` here no (0)

Per the assay record, what outcome was assigned to `O=C1Cc2cc(Cl)ccc2N1` ? no (0)

Check the results log: what was the call for `CN1C(C(=O)Nc2ccccn2)=C(O)c2sccc2S1(=O)=O` ? no (0)

// param item: `C[C@@H]1CN(CCCn2c3ccccc3c3ccccc32)C[C@H](C)N1` ; yields the recorded call yes (1)

---

procedureSummary: qHTS assay for small molecule activators of the heat shock response signaling pathway (AID 743210); note: potency is the fitted concentration of half-maximal effect;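 for activation: HeLa cells with beta-lactamase reporter driven by heat shock elements; % is set by controls: 0 for no effect and ±100 for the full control effect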
details: HeLa HSE-bla reporter, beta-lactamase ratio, 5 h; series mostly up to 62.6 µM
Inconclusive results are not listed. Calls of active or inactive are those of the source. Calls follow the shape of the dose curve; as a rule, active = well fitted activation curve with a large enough effect in the signal ratio in the repeat runs, with a control signal flat (not every such curve was filed as active); inconclusive = weak or mixed curves; inactive = flat fitted curve, though single readings scatter; the % refers to the signal ratio.
observationType: Potency

Please review the following examples before continuing.
Clc1ccc(Nc2nnc(Cc3ccncc3)c3ccccc23)cc1
inactive
CCCCCCC(C)(C)C(=O)O
inactive
Nc1ncnc2c1ncn2[C@H]1CC[C@@H](CO)O1
inactive
CCCCCCCCCCC(=O)O
inactive
CCCCCCCCN
inactive
C/C=C/C=C/C=O
inactive

Potency for `CC(C)c1nc(CN(C)C(=O)N[C@H](C(=O)N[C@@H](Cc2ccccc2)C[C@H](O)[C@H](Cc2ccccc2)NC(=O)OCc2cncs2)C(C)C)cs1` ? inactive

// query Potency value for entry `O=C(Cn1ccnc1[N+](=O)[O-])NCCO` inactive

Please give the measured Potency for this compound: `CC(C)=CCC1C(=O)N(c2ccccc2)N(c2ccccc2)C1=O` 28.7 µM (active)

Report Potency for `N#CCc1ccc(Cl)cc1Cl` please. inactive

// lookup Potency for `Cc1cc(C)cc(N)c1` inactive

Given the compound `C=COCC(C)C` , what is its reported Potency? inactive
